# reported folding stability dG unfold; entries follow
Assay: folding stability dG unfold from trypsin proteolysis; higher = more stable
Expressed in kcal/mol, but write only the number.

SAGGSSPPGVKVEVTVEVTYIPSKGGYKLTFYRPGGEKVDTKELEKDKLEEAKEELKAKGFDVVKIKKSAGG [r13_765_JUSTAS]	-0.402

Field folding stability dG unfold (entry SMLEKIEKAIESGNDGILVPLKLTPEEFKKVRAYLEELGFTLLSEEELAVGPVPVYELTFKVNTKTGEAASA [r9_498_JUSTAS] ) reads 1.88

get_value(item= SAGGSAGGSAMKKVTITLLDPRNGKEHTVTLPADITEEEAKAAAEAVAAERGWEVLSIEFEPSAGGSAGGSA [r18_322_JUSTAS] , readout=folding stability dG unfold) returns 3.61

Per the records, this sequence ( SAGGSAGGSGPELRPPDVPSTTVPLKVSPEEAKEILKELLGLPEDVEVPFGSIDPATGVITLVSAGGSAGGS [r12_815_JUSTAS] ) has folding stability dG unfold equal to 1.25

----------
Assay: folding stability dG unfold from trypsin proteolysis; higher = more stable
Collected folding stability dG unfold values appear next to each entry.
Note: unit kcal/mol is implicit; provide only the numeric part.

SAGGSAGGSKEKVIEIKIKVKTKEEAKKKAEELAKELEKKGYKIKKVEIKYDKETKEVTVRIESAGGSAGGS [r20_155_TrROS_Hall]	3.9
SAMTLTLEFENLKDLTEEEIEEALKEAGLPGVKILGIKKTSEKWTITIAYDSSTPKEKIEAAIKKAVAESAG [r14_657_JUSTAS]	5.03
SAGGSAGGSAGGKWHLITFTITMEMYVMKFDPENGKWKPVDPIPMEIQITFLIPPGDPISAGGSAGGSAGGS [r10_610_TrROS]	3.77

The value of folding stability dG unfold measured for the sequence SAGGSAGGPFVLKFPDPKNMNKLQEAASDHGMNMNRNPEKGTHVINFGGNMLDELQELPGIEIVSAGGSAGG [r6_726_TrROS] turned out to be -1.05

----------
Assay: folding stability dG unfold (combined trypsin and chymotrypsin); higher = more stable
Collected folding stability dG unfold values appear next to each entry.
Report only the number, with the unit kcal/mol understood.

Please review the following examples before continuing.
SAGGSTAEELADQIHKKFMEQGYKITDVDITYNPNNWVMVKATIRNPDDPNQRMKMNIMIPKDEIKSAGGSA [r2_384_TrROS]	0.239
SAGGSAGGSMTKTITTKTEEEAESEARRLLKEEGVPEGVEPTPITLESVDPEKGLYTFTVELESAGGSAGGS [r12_999_JUSTAS]	0.379
SAGGSAGGSGFPVRLKIWDPDETYTYTVPMDPDNVQKFAEELGEKNFNIETEPNGWATITIPKSAGGSAGGS [r12_292_TrROS]	0.713

Summary for this sequence, SAGGSAGGSASIGGGPTGHSYKITLPNGTEKFLVMDPSTLKELIEKLGVKEVEVKDIGPLQSAGGSAGGSAG [r3_141_JUSTAS] : folding stability dG unfold is 0.482

Lab note: measured folding stability dG unfold of SAGGSAGGSAGGMITKVTVTYLPGGEVSLTITDENGTPSEKTLSLAELKKYPDIPLELDPSAGGSAGGSAGG [r7_238_JUSTAS] was -0.374

----------
Assay: folding stability dG unfold (combined trypsin and chymotrypsin); higher = more stable
REPORTED ENDPOINT: folding stability dG unfold (kcal/mol)
Give the number; kcal/mol is assumed, so skip it.

Solved entries (count: 5):
SAGGSAGGSNKPVYFRAKIRNPDGKPIGEIEIPAKFDSLEDARSFAENLAKDLPGYKVEIELVSAGGSAGGS [r20_201_TrROS]	1.77
SAGLKVEIFPMDGTEQTIPIPAEDADPLVDEFQDNGFKVDNVEVDPDGEVWIPIKFPNGRPWMIEIDWESAG [r5_645_TrROS]	0.0616
SAGGSGPPVLVRLEVEVLGEPYTLTLPVPASLIHPSQRVRFRVRVVSVDPVNNRVTVRIESVELYPSAGGSA [r2_479_TrMRF]	2.98
SAGGSPATVLSSSTLSTTPLPDGTTLTTSETVTLLPNGEPVVTTTTTTTAPDGSVTTTTTTTPLDAASAGGS [r16_261_JUSTAS]	0.885
SKKKKKKKKKKPKTVIIEIDVKEMSEEEIREILKKLPKNVKRVIIIAKSEEEKEKLKELLKEAGYEVEIVSA [r9_919_TrROS_Hall]	1.76

Proceed to the following item.
Entry SAGLDEEAYRNGLTVYLTSRLPGPDVLRPQWFDVTPEGDGFTYNVALPDGVPVNLEVLSRKVLSPEELLSAG [r14_427_JUSTAS] — recorded folding stability dG unfold = 0.0205

----------
Reported folding stability dG unfold values are given for each entry in this list.
Test: folding stability dG unfold from chymotrypsin proteolysis; higher = more stable
Field format: number, assumed kJ/mol, no unit text.

Here is how some sequences turned out for folding stability dG unfold.
SAGGSAGGSAGVIPLPGGEEVEYFPEKGEATVRLPDGTVYKVEITKAPDGSLSVTVTPAGSAGGSAGGSAGG [r11_331_JUSTAS]	4.6
SAGGSAGGSKKAEELAKKLGLEVEIVKVEKKKDGSEVVIVKIKNKDGSELTLVVKDGKVELFPSAGGSAGGS [r12_279_TrROS_Hall]	10.2
SAGAPGEVTVTVVRRPRVETEEERRRRRAPPPPVVTLTLKVPPGWVVRRVAFNADGEIVSVELYRRDDLSAG [r5_750_TrROS_Hall]	12.7
SAGGSTVTVTVRRRVRVEVNGELREFEVEVTVTVRLPPPPPVIELPPEQVTRIEWDEETQELRVEVDSAGGS [r8_28_TrROS_Hall]	14
SAGGKKVFTLDELKKLAEELNIEKIEVKEDEEGIYTFTFTDLAKKTGKEVTIKIVRNKNGELLVEIEPSAGG [r13_163_TrROS_Hall]	12.1

Sample SAGGRIHIPIPLNQAREILKKLAPDGRDVTAEPQGPSKDNVYYTIEFEPPKNGNEVDIEIWIPPPGDSAGGS [r16_486_TrROS] ; folding stability dG unfold observed: -0.98

Memo: SAGGDNKPKVYPITFMIPPDDIKPGDEIPIDEIADNLGIPPNYTIKIKEVQPNPEDGYYMYRIEIVWSAGGS [r16_165_TrROS] , reported folding stability dG unfold: 7.05

Lab note: SAGGAGDQPVVIVATGSDGSPRVFPFKTKEPFKVTVNFPDEKRVFTVPADEPFVFDAPDGDILLDASSAGGS [r16_456_TrMRF] gave folding stability dG unfold of 2.92

Item: SAGGMTITVTVGPGKEEEAVEALKKKTGLKVELVETTPRPVRAPDGTVLEEVEEITIKITKPDPNLKESAGG [r13_943_JUSTAS] | folding stability dG unfold: -1.13

Value of folding stability dG unfold reported for the sequence SAGGSASLEELAEKLREKLPPEEAEKLRELLKELEEKGYEIVEIRIEVLPNGEKKVTIKLKVKKKPSAGGSA [r15_613_TrROS_Hall] is 13.9

Briefly, folding stability dG unfold measured for SAGGSAGGSDDDENQKENQKAKPIKLEPIVEITVPYPDGFSLTVPIWRWPDGGIGIELEIFPLGSAGGSAGG [r6_326_TrROS] : 6.02

----------
Assay: folding stability dG unfold (combined trypsin and chymotrypsin); higher = more stable
Rule: folding stability dG unfold of 3 kcal/mol or more gives True; anything lower gives False.

Consider the worked cases shown below.
SAGGSNPGDPEQVPKVKIKITYPDNGKEFTIPVEELRNGPIEEAVSEIANEARERYPGHPLRIEPVSAGGSA [r2_392_TrROS]	False
SAGGSAGGSAGKYYIIKYPGKVEIIPESEVEKIIEANPNVEIEEFESKEEALKALEKALSSAGGSAGGSAGG [r11_60_TrMRF]	True
SAGDNLKIDVEVEPAKVILGEFDENGKLIKPIEKDVLIVKVTVTFSNGKKLEIRATFFDGKLISVSSGSAGG [r19_44_TrMRF]	True
FTMDEMKELADNIADNLAKEDGYKIKSVNIDATIPIPVYMKVRPDPNGEPRWEMHWMPIKVKINVEIKPPNS [r1_91_TrROS]	False
SAGMVVKVTVITEDEKPIEVYLPVKDPEKYPPEKVEEAAKEIAKKLEEEGIPVKKVSVEPIAPKPGLLSAGG [r19_334_TrMRF]	False

folding stability dG unfold >= 3 kcal/mol for SAGGSMVSEEEIKEIVEKTAAELPEDAVEPVTVTIELPNPDGTTTVLTITITRSPTSISYTVSSSPAASAGG [r19_220_JUSTAS] ?
True

Does folding stability dG unfold meet or surpass 3 kcal/mol for SAGGSAGGSAGMILTEEVTVAVPTLSTADGTRHTTTVPELVVVELKLPPVPPEAVEKLLASAGGSAGGSAGG [r11_318_JUSTAS] ?
False

Reference source: the supplement of paper PMC12764529
